Assay type: in vivo
Conditions: rat, PO 10 mg/kg
READOUT KIND: Cmax (nM)

1) CN1CCN(c2ccc(/C(=C(/CCCO)c3ccccc3)c3ccc(Br)cc3)cc2)CC1 [Compound 18e] | 10

* * *

Measurement record for ER alpha ligand-binding domain (LBD) (Homo sapiens (Human)); quantity recorded: IC50.
READOUT KIND: IC50 (nM)

1) OCCC/C(=C(\c1ccc(O)cc1)c1ccc(C2CCN(C3CCCCC3)CC2)cc1)c1ccccc1 [Compound 22p] | 2120
2) OCCC/C(=C(\c1ccc(O)cc1)c1ccc(C2CCNCC2)cc1)c1ccccc1 [Compound 20j] | 992

* * *

Assay type: in vitro ADME, human
Settings: 1 μM, 30 minutes, 37° C.
Under this convention, yes (1) denotes MS (Microsomal Stability) (%) human strictly below 60% and no (0) denotes MS (Microsomal Stability) (%) human at or above 60%.

1. CC(C)N1CCC(c2ccc(/C(=C(/CCCO)c3ccccc3)c3cccc(O)c3)cc2)C1 (racemic) [Compound 22u] | yes (1)
2. Cl.Cl.OCCC/C(=C(\c1ccc(O)cc1)c1ccc(OCCN2CCNCC2)cc1)c1ccccc1 | yes (1)
3. Cc1ccc(/C(=C(\CCCO)c2ccccc2)c2ccc(C3CNC3)cc2)cc1 [Compound 20d] | no (0)
4. Cc1ccc(/C(=C(\CCCO)c2ccccc2)c2ccc(C3CCN(C)CC3)cc2)cc1 [Compound 22f] | no (0)
5. OCCC/C(=C(\c1ccc(O)cc1)c1ccc(OCCN2C[C@H]3C[C@H]3[C@H]2CO)cc1)c1ccccc1 [Compound 38d] | yes (1)
6. OCCC/C(=C(\c1ccc(O)cc1)c1ccc(C2CCNCC2)cc1)c1ccccc1 [Compound 20j] | no (0)
7. OCCC/C(=C(\c1ccc(O)cc1)c1ccc(C2CCN(C3CCCCC3)CC2)cc1)c1ccccc1 [Compound 22p] | no (0)
8. OCCC/C(=C(/c1ccc(C2CCN(C3CC3)CC2)cc1)c1cccc(O)c1)c1ccccc1 [Compound 22r] | no (0)
9. OCCC/C(=C(\c1ccc(O)cc1)c1ccc(C2CCN(C3CC3)CC2)cc1)c1ccccc1 [Compound 22i] | yes (1)
10. Cc1ccc(/C(=C(\CCCO)c2ccccc2)c2ccc(N3CCNCC3)cc2)cc1 [Compound 20b] | yes (1)
11. CC(C)N1CCN(c2ccc(/C(=C(/CCCO)c3ccccc3)c3ccc(Br)cc3)cc2)CC1 [Compound 18h] | no (0)

* * *

Assay type: in vitro ADME, dog
Settings: 1 μM, 30 minutes, 37° C.
READOUT KIND: MS (Microsomal Stability) (%) dog

1) OCCC/C(=C(\c1ccc(O)cc1)c1ccc(C2CCNCC2)cc1)c1ccccc1 [Compound 20j] | 68.3
2) CC(C)N1CCC(c2ccc(/C(=C(/CCCO)c3ccccc3)c3cccc(O)c3)cc2)CC1 [Compound 22m] | 55.0
3) Cc1ccc(/C(=C(\CCCO)c2ccccc2)c2ccc(N3CCNCC3)cc2)cc1 [Compound 20b] | 58
4) CC(C)N1CCC(c2ccc(/C(=C(/CCCO)c3ccccc3)c3cccc(O)c3)cc2)C1 (racemic) [Compound 22u] | 10.0
5) OCCC/C(=C(\c1ccc(O)cc1)c1ccc(N2CCN(C3CCCC3)CC2)cc1)c1ccccc1 [Compound 22n] | 72.0
6) CCN1CCN(c2ccc(/C(=C(/CCCO)c3ccccc3)c3ccc(C)cc3)cc2)CC1 [Compound 18j] | 58.0
7) OCCC/C(=C(\c1ccc(O)cc1)c1ccc(C2CCN(C3CCCCC3)CC2)cc1)c1ccccc1 [Compound 22p] | 77.7

These measurements were taken from patent US11285226B2.
